- System: scleroderma lung fibroblasts (SLF)
- testName: Kinase (signaling) inhibitor treatment of SLF, Western blotting
- Format: cell-based, human
- Set-up: key: a decrease ↓; an increase ↑; no effect —
- experimentalContext: inhibitor 10 μM, serum-free medium, cell layer, Western blotting
- Description: Fibroblasts were derived from lung tissue obtained at autopsy from scleroderma patients (SLF) and from age-, race-, and sex-matched normal subjects (NLF) and cultured as previously described (44). Cells were used in passages 2-4. […] Immunoreactive bands were quantified by densitometry using the Image 1.32J NIH software. For statistical analysis the raw densitometric data were processed and analyzed using the Prism 3.0 (GraphPad Software Inc.) statistical analysis software.

molecule: Oc1c2ccccc2c2c3c(cccc13)N=N2
Ph-ERK: ↓
--
molecule: O=c1cc(N2CCOCC2)oc2c(-c3ccccc3)cccc12
Ph-ERK: ↑
--
molecule: O=c1[nH]c2ccccc2n1C1CCN(Cc2ccc(-c3nc4cc5[nH]cnc5cc4nc3-c3ccccc3)cc2)CC1
Ph-ERK: ↑
--
molecule: N#CC(=C(/N)Sc1ccccc1N)/C(C#N)=C(\N)Sc1ccccc1N [Peptide U0126, U0126]
Ph-ERK: ↓

====

- Tested on: scleroderma lung fibroblasts (SLF)
- testName: Kinase (signaling) inhibitor treatment of SLF, Western blotting
- Type: cell-based, human
- Design: key: a decrease ↓; an increase ↑; no effect —
- experimentalContext: inhibitor 10 μM, serum-free medium, cell layer, Western blotting

compound: O=c1[nH]c2ccccc2n1C1CCN(Cc2ccc(-c3nc4cc5[nH]cnc5cc4nc3-c3ccccc3)cc2)CC1 [Akt inhibitor VIII]
Ph-Akt: ↓

compound: O=c1cc(N2CCOCC2)oc2c(-c3ccccc3)cccc12 [LY294002]
Ph-Akt: ↓

compound: Oc1c2ccccc2c2c3c(cccc13)N=N2 [SP600125]
Ph-Akt: ↓

compound: N#CC(=C(/N)Sc1ccccc1N)/C(C#N)=C(\N)Sc1ccccc1N [Peptide U0126, U0126]
Ph-Akt: —

====

- Tested on: scleroderma lung fibroblasts (SLF)
- testName: Collagen and ASMA expression in SLF treated with CSD and its subdomains
- Assay type: cell-based, human
- experimentalContext: peptides at 1, 3, and 5 μM
Where no end group is shown, it is not given here.

substance: BC: CSD subdomain BC (89-101) synthesized in fusion with the Antennapedia internalization sequence (FTTFTVTKYWFYR; also: fused to Antennapedia internalization sequence; UniProt Q03135 89-101, looked up, fragment)
measuredTarget: scleroderma lung fibroblasts (SLF)
ASMA expression: inhibited
--
substance: AB: CSD subdomain AB (82-95) synthesized in fusion with the Antennapedia internalization sequence (DGIWKASFTTFTVT; also: fused to Antennapedia internalization sequence; UniProt Q03135 82-95, looked up, fragment)
measuredTarget: scleroderma lung fibroblasts (SLF)
ASMA expression: did not inhibit
--
substance: B: CSD subdomain B (89-95) synthesized in fusion with the Antennapedia internalization sequence (FTTFTVT; also: fused to Antennapedia internalization sequence; UniProt Q03135 89-95, looked up, fragment)
measuredTarget: scleroderma lung fibroblasts (SLF)
ASMA expression: did not inhibit
--
substance: DGIWKASFTTFTVTKYWFYR [CSD peptide]
measuredTarget: scleroderma lung fibroblasts (SLF)
ASMA expression: inhibited

====

- Test system: scleroderma lung fibroblasts (SLF)
- testName: Kinase (signaling) inhibitor treatment of SLF, Western blotting
- Type: cell-based, human
- Parameters: key: a decrease ↓; an increase ↑; no effect —
- experimentalContext: inhibitor 10 μM, serum-free medium, culture medium, Western blotting
propertyName: Collagen

molecule: N#CC(=C(/N)Sc1ccccc1N)/C(C#N)=C(\N)Sc1ccccc1N [Peptide U0126, U0126]
measuredTarget: scleroderma lung fibroblasts (SLF)
resultValue: ↓
--
molecule: Oc1c2ccccc2c2c3c(cccc13)N=N2
measuredTarget: scleroderma lung fibroblasts (SLF)
resultValue: ↓
--
molecule: O=c1cc(N2CCOCC2)oc2c(-c3ccccc3)cccc12
measuredTarget: scleroderma lung fibroblasts (SLF)
resultValue: ↓
--
molecule: O=c1[nH]c2ccccc2n1C1CCN(Cc2ccc(-c3nc4cc5[nH]cnc5cc4nc3-c3ccccc3)cc2)CC1
measuredTarget: scleroderma lung fibroblasts (SLF)
resultValue: —

Taken from patent US8058227B2.
